# METHOD: self-splicing fitness, log relative to wild type (ln ratio); higher = more splicing; Tetrahymena group I intron in knt gene, E. coli kanamycin selection, DiMSum; sequences stand for … in CUCUCU…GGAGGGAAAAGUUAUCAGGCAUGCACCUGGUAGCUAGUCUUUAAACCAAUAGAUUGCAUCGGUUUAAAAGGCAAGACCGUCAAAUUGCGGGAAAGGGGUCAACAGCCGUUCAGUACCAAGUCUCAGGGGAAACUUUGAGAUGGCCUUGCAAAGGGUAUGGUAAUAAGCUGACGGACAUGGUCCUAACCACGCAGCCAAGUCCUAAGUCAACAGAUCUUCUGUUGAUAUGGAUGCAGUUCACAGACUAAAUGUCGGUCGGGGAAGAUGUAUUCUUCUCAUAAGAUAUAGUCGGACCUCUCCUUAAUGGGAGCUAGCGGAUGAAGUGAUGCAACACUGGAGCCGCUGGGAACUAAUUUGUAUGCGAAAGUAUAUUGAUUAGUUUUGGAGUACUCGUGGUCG;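 also: selection with 25 µg/mL kanamycin versus none on LB agar overnight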
# CONDITION_SUMMARY: 30 °C
VALUE_TYPE: self-splicing fitness (ln)
Number only, please.

See these solved cases before continuing.
- CHAIN: "UUAUAGCAAUAUUACGUGUG"
  MEAS_VALUE: -1.63
- CHAIN: "UGCAAGCAAUAUUACGGUUG"
  MEAS_VALUE: -2.49
- CHAIN: "CAUCAGCAAUAUUACGUCAA"
  MEAS_VALUE: -3.09
- CHAIN: "GGGAAGCAAUAUUACGACGA"
  MEAS_VALUE: -0.787
- CHAIN: "CCCUAGCAAUAUUACGACCA"
  MEAS_VALUE: -3.35

Task item: Would you kindly share the measured self-splicing fitness (ln) for CAGGAGCAAUAUUACGUAAG ?
Reply: -0.111

Task item: Same lookup for GCGCAGCAAUAUUACGACGA , please.
Reply: 0.345

Task item: Moving on to the next sequence: CGGCAGCAAUAUUACGUGCG
Reply: -3
